system: HLA-A*02:01 (Homo sapiens, UniProt P04439, D140Y/D185E/D98H/E176V/E277Q/G131W/G231S/I119V/I121R/I166T/I218V/L300P/L318F/N151K/N90K/P208A/P217A/Q86G/Q94H/R138H/R169H/T345S)
Construct: made in house
assay.name: MHC binding assay: UV-ligand exchange with β2m ELISA (peptide exchange yield)
test.settings: binding to HLA-A*02:01 evaluated by peptide exchange yield (UV-ligand exchange, β2m ELISA)
From the text: Candidate peptides for T cell based therapies according to the present invention were further tested for their MHC binding capacity (affinity). The individual peptide-MHC complexes were produced by UV-ligand exchange, where a UV-sensitive peptide is cleaved upon UV-irradiation, and exchanged with the peptide of interest as analyzed. Only peptide candidates that can effectively bind and stabilize the peptide-receptive MHC molecules prevent dissociation of the MHC complexes. […]
measured.endpoint: Peptide exchange

Here is how some substances turned out for Peptide exchange.
79 (TVLEEIGNRV; listed as Homo sapiens) [compound 79]
++ (≧20% = ++)
142 (LLDAAHASI; listed as Homo sapiens) [compound 142]
++ (≧20% = ++)
95 (KLIDEDEPLFL; listed as Homo sapiens) [compound 95]
+++ (≧50 = +++)
241 (KQFEGTVEI; listed as Homo sapiens) [compound 241]
+++ (≧50 = +++)

IN: Hello, please tell me recorded Peptide exchange for this one: 39 (YLEDGFAYV; listed as Homo sapiens) [compound 39]
OUT: +++ (≧50 = +++)

IN: Hello, please tell me recorded Peptide exchange for this one: 26 (VLDGKVAVV; listed as Homo sapiens) [compound 26]
OUT: +++ (≧50 = +++)

---

system: HLA-A*02:01 (Homo sapiens, UniProt P04439, D140Y/D185E/D98H/E176V/E277Q/G131W/G231S/I119V/I121R/I166T/I218V/L300P/L318F/N151K/N90K/P208A/P217A/Q86G/Q94H/R138H/R169H/T345S)
Construct: made in house
assay.name: MHC binding assay: UV-ligand exchange with β2m ELISA (peptide exchange yield)
test.settings: binding to HLA-A*02:01 evaluated by peptide exchange yield (UV-ligand exchange, β2m ELISA)
Text: Candidate peptides for T cell based therapies according to the present invention were further tested for their MHC binding capacity (affinity). The individual peptide-MHC complexes were produced by UV-ligand exchange, where a UV-sensitive peptide is cleaved upon UV-irradiation, and exchanged with the peptide of interest as analyzed. Only peptide candidates that can effectively bind and stabilize the peptide-receptive MHC molecules prevent dissociation of the MHC complexes. […]
measured.endpoint: Peptide exchange

Here is how some substances turned out for Peptide exchange.
277 (KLQEELNKV; listed as Homo sapiens) [compound 277]
+++ (≧50 = +++)
93 (RLYGYFHDA; listed as Homo sapiens) [compound 93]
++ (≧20% = ++)
190 (SLSTELFKV; listed as Homo sapiens) [compound 190]
+++ (≧50 = +++)
230 (KLLNMIFSI; listed as Homo sapiens) [compound 230]
+++ (≧50 = +++)
66 (AMFPDTIPRV; listed as Homo sapiens) [compound 66]
++ (≧20% = ++)
75 (ALLDGALQL; listed as Homo sapiens) [compound 75]
+++ (≧50 = +++)

IN: Hello, please tell me recorded Peptide exchange for this one: 280 (HLWGHALFL; listed as Homo sapiens) [compound 280]
OUT: +++ (≧50 = +++)

IN: Hello, please tell me recorded Peptide exchange for this one: 248 (VLMQDSRLYL; listed as Homo sapiens) [compound 248]
OUT: +++ (≧50 = +++)
